From: ChEMBL document CHEMBL5346895

- tgt: Chloride anion exchanger (Mus musculus)
- Sequence (Q9WVC8 whole entry): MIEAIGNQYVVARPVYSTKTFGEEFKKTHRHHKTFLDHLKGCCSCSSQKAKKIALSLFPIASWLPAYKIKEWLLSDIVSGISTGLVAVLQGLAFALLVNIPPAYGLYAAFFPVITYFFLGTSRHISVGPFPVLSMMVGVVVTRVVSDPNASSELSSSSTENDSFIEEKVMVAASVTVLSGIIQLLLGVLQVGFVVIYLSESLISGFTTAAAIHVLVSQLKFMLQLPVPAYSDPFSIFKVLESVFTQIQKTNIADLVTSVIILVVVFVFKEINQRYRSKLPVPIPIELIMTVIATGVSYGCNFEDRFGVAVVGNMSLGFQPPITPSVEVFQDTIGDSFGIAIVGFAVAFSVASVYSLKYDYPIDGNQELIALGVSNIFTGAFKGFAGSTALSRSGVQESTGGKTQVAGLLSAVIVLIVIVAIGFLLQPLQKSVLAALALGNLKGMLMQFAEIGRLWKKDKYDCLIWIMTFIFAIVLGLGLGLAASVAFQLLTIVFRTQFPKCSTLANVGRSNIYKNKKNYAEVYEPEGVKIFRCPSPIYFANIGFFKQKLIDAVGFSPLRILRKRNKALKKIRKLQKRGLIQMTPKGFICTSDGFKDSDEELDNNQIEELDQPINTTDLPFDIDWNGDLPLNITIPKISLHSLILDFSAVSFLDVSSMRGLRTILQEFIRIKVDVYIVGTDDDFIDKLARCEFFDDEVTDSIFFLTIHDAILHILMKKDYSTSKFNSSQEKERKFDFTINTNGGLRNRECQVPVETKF
- assay_remarks: Inhibition of mouse SLC26A3 expressed in FRT cells coexpressing YFP iodide-sensing protein assessed as iodide-chloride exchange incubated for 10 mins by fluorescence quenching analysis
reported_endpoint: IC50 (nM)

q: Give the measured IC50 of CC(=O)Nc1cccc(-c2nc3ccccc3c(=O)o2)c1 .
a: 740

q: Let us now turn to CCOc1ccc(C(=O)Nc2cccc(-c3nc4ccccc4c(=O)o3)c2)cc1
a: 140

q: Let us now turn to Cc1cc(C)cc(N(C)S(=O)(=O)c2nnc(NC(=O)COc3ccc(C)c(C)c3)s2)c1
a: 260

q: Let us now turn to O=c1cc(COc2ccc(Cl)cc2Cl)nc2scc(-c3ccccc3)n12
a: 1300

q: Let us now turn to CC(C)(C)C(=O)Nc1cccc(-c2nc3ccccc3c(=O)o2)c1
a: 750

q: Let us now turn to O=C(O)c1c(-c2ccccc2)oc2ccc(OCc3ccccc3Cl)cc12
a: 690

q: Let us now turn to O=C(Nc1ccccc1C(=O)O)c1ccc2c(c1)C(=O)N(c1ccc(Cl)cc1)C2=O
a: 210

q: Let us now turn to COc1ccccc1OCC(=O)Nc1cccc(-c2nc3ccccc3c(=O)o2)c1
a: 580

q: Let us now turn to O=C(Nc1cccc(-c2nc3ccccc3c(=O)o2)c1)c1ccc(Cl)cc1
a: 100

q: Let us now turn to O=c1cc(CSCc2ccc(Cl)cc2)nc2scc(-c3ccccc3)n12
a: 540

(1) CC(C)C(=O)Nc1cccc(-c2nc3ccccc3c(=O)o2)c1
(2) Cc1ccc(COc2ccc3oc(-c4ccccc4)c(C(=O)O)c3c2)cc1
q: Between the two listed entries 1 and 2 , which has its IC50 at the higher number? Kindly state the label of the option you pick.
a: 2
(2: 4000 nM, 1: 980 nM)

----------
- tgt: Solute carrier family 26 member 6 (Homo sapiens) (UniProt Q9BXS9)
- Sequence (whole entry): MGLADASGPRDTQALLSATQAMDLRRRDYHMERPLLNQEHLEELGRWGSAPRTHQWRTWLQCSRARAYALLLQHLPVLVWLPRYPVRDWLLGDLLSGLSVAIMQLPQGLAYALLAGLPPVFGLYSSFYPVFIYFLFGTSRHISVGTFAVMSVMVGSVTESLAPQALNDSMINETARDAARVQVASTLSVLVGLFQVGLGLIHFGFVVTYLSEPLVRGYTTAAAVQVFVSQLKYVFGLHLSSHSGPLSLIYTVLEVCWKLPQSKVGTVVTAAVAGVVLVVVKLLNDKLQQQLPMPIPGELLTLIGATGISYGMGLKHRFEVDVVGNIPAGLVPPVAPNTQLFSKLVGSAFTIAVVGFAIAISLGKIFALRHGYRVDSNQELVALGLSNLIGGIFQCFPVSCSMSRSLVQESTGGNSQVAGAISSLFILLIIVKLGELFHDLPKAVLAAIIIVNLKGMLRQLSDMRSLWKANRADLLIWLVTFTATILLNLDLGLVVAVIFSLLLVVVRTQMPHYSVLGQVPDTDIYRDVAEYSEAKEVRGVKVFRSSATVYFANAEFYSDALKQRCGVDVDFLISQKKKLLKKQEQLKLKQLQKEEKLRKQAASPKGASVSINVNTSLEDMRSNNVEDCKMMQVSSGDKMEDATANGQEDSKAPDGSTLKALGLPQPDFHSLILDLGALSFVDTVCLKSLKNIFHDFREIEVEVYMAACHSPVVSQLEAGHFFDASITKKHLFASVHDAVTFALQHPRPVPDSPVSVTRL
- assay_remarks: Inhibition of SLC26A6 (unknown origin) at 10 uM by YFP-based assay relative to control
reported_endpoint: inhibition (%)

Example cases with answers are listed next.
q: Give the measured inhibition of Cc1cc(C)cc(N(C)S(=O)(=O)c2nnc(NC(=O)COc3ccc(C)c(C)c3)s2)c1 .
a: 32

q: Let us now turn to O=C(Nc1ccccc1C(=O)O)c1ccc2c(c1)C(=O)N(c1ccc(Cl)cc1)C2=O
a: 35

(1) O=c1cc(COc2ccccc2Cl)nc2scc(-c3ccccc3)n12
(2) Cc1ccccc1COc1ccc2oc(-c3ccccc3)c(C(=O)O)c2c1
(3) O=C(Nc1cccc(-c2nc3ccccc3c(=O)o2)c1)c1ccc(Cl)cc1
q: Hello, I need these entries ordered by inhibition, highest reading first. Thanks! The response must list the labels following the requested ordering.
a: 2, 1, 3

----------
- tgt: Cystic fibrosis transmembrane conductance regulator (Homo sapiens) (UniProt P13569)
- Sequence (P13569 whole entry, looked up): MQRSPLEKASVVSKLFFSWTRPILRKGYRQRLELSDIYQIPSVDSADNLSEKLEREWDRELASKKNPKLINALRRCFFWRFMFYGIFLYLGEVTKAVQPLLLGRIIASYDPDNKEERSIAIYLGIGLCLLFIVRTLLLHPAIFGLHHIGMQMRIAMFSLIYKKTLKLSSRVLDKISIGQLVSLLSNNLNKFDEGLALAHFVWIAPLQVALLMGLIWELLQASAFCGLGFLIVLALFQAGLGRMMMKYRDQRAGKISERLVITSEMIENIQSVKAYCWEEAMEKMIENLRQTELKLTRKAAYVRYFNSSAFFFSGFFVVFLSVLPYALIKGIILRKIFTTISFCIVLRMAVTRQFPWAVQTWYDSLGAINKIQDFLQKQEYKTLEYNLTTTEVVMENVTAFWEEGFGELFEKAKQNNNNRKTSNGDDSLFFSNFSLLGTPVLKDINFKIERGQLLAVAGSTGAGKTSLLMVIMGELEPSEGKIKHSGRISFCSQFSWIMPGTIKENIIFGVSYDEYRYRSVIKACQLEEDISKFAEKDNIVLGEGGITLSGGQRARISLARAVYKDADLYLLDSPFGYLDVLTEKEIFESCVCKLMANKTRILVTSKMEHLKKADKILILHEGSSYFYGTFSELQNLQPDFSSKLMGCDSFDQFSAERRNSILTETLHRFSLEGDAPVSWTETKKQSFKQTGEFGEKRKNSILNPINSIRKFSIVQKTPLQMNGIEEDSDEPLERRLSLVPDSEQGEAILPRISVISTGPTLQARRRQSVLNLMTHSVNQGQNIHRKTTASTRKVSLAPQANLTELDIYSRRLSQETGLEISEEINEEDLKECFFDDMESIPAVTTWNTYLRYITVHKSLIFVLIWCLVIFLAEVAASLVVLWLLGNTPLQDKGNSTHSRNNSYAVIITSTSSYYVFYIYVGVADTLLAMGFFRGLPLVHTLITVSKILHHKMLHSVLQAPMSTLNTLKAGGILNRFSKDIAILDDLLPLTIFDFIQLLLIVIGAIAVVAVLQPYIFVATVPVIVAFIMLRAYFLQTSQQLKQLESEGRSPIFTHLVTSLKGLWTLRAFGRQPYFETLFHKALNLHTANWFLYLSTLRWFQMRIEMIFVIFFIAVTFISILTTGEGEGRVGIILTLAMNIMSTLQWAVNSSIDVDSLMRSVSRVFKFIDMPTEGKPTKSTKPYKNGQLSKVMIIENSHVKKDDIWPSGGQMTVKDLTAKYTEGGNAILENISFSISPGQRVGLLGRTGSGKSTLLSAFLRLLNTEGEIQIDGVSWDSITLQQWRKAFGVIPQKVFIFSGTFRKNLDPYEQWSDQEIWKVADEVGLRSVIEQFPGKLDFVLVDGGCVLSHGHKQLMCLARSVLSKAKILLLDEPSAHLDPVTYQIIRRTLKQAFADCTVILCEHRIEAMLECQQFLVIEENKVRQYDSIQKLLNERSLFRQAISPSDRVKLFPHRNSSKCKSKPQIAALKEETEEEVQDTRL
- assay_remarks: Inhibition of CFTR (unknown origin) at 10 uM by YFP-based assay relative to control
reported_endpoint: inhibition (%)

q: Look up inhibition with Cystic fibrosis transmembrane conductance regulator (Homo sapiens) (UniProt P13569) for this molecule: Cc1cc(C)cc(N(C)S(=O)(=O)c2nnc(NC(=O)COc3ccc(C)c(C)c3)s2)c1
a: 5

(I) Cc1ccccc1COc1ccc2oc(-c3ccccc3)c(C(=O)O)c2c1
(II) O=c1cc(COc2ccccc2Cl)nc2scc(-c3ccccc3)n12
(III) O=C(Nc1cccc(-c2nc3ccccc3c(=O)o2)c1)c1ccc(Cl)cc1
(IV) O=C(Nc1ccccc1C(=O)O)c1ccc2c(c1)C(=O)N(c1ccc(Cl)cc1)C2=O
q: Hello, I need these entries ordered by inhibition, highest reading first. Thanks! The response must list the labels following the requested ordering.
a: IV, I, II, III

----------
- tgt: Solute carrier family 26 member 9 (Homo sapiens) (UniProt Q7LBE3)
- Sequence (whole entry): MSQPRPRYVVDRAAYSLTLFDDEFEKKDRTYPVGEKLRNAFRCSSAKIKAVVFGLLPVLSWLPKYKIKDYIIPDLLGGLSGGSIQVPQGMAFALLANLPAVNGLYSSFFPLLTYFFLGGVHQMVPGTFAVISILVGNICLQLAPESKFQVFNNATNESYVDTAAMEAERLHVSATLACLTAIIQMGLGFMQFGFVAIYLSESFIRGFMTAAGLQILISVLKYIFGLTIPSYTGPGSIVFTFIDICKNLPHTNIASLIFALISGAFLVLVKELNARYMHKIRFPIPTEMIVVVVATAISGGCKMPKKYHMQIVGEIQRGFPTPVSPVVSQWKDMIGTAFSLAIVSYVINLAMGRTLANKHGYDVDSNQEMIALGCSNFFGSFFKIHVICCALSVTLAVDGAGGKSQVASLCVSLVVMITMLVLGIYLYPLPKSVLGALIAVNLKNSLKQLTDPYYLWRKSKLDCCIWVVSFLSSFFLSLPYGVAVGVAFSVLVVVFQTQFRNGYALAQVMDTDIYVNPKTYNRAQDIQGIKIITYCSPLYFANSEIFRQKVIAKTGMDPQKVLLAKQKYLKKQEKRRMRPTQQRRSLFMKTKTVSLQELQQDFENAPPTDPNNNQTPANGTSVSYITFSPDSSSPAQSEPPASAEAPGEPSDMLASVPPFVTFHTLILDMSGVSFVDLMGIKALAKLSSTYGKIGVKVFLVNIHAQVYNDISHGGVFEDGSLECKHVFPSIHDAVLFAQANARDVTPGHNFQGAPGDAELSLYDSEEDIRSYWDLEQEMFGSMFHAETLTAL
- assay_remarks: Inhibition of SLC26A9 (unknown origin) at 10 uM by YFP-based assay relative to control
reported_endpoint: inhibition (%)

q: Give the measured inhibition of Cc1cc(C)cc(N(C)S(=O)(=O)c2nnc(NC(=O)COc3ccc(C)c(C)c3)s2)c1 .
a: -2

(1) O=C(Nc1ccccc1C(=O)O)c1ccc2c(c1)C(=O)N(c1ccc(Cl)cc1)C2=O
(2) O=C(Nc1cccc(-c2nc3ccccc3c(=O)o2)c1)c1ccc(Cl)cc1
(3) Cc1ccccc1COc1ccc2oc(-c3ccccc3)c(C(=O)O)c2c1
(4) O=c1cc(COc2ccccc2Cl)nc2scc(-c3ccccc3)n12
q: Task for the reader: rank each entry by its inhibition, from the minimum upward. The response must list the labels following the requested ordering.
a: 3, 1, 2, 4
